Tested on: Escherichia coli
Experiment: MIC, sole activity (no second agent)
Assay type: cell-based
Details: in the absence of Rifampicin; strain ATCC25922
Experimental: To evaluate the potency and spectrum of the compounds both alone and in combination with another agent, susceptibility testing was performed against up to four strains of each of the four Gram negative pathogens, Escherichia coli, Pseudomonas aeruginosa, Klebsiella pneumoniae and Acinetobacter baumannii. […] MICs were determined as described herein, except that a different supplier of Cation-adjusted MHB was used. […]
Numbered stars: 1 amine (or outer) side, 2 acyl side, 3 side chain; on linkers, the order of the positions; unused ones are H or OH. Bridge positions count the residues as written; N and C are the ends. Square brackets hold non-standard residues; d marks the D form. Peptide text beside a SMILES is read from it. * marks the point of attachment. ξ: configuration not given here. Achc(trans-4) = O=C([C@H]1CC[C@H](N[*:1])CC1)[*:2]; Thr(3ξ) = CC(O)[C@H](N)C(=O)O; X9 = CC(C)[C@H](N)CCC(=O)*; Dab = NCC[C@H](N)C(=O)O
QUANTITY: MIC E. coli ATCC25922 (micrograms/mL)
The answer is to be given in micrograms/mL; state only the numeric part.

Tested system Escherichia coli; MIC E. coli ATCC25922 recorded for CC(C)C[C@@H]1NC(=O)[C@@H](Cc2ccccc2)NC(=O)[C@H](CCN)NC(=O)[C@@H](NC(=O)[C@H](CCN)NC(=O)[C@@H](NC(=O)[C@H]2CC[C@H](N)CC2)[C@@H](C)O)CCNC(=O)[C@H]([C@@H](C)O)NC(=O)[C@H](CCN)NC(=O)[C@H](CCN)NC1=O [Example 17] (H-[Achc(trans-4)]T[Dab][Dab][Dab][dF]L[Dab][Dab]T; lactam 4-C) was 2

Tested system Escherichia coli; MIC E. coli ATCC25922 recorded for CC(C)C[C@@H]1NC(=O)[C@@H](Cc2ccccc2)NC(=O)[C@H](CCN)NC(=O)[C@@H](NC(=O)[C@H](CCN)NC(=O)[C@@H](NC(=O)CC[C@@H](N)C(C)C)C(C)O)CCNC(=O)[C@H](C(C)O)NC(=O)[C@H](CCN)NC(=O)[C@H](CCN)NC1=O (stereo partly drawn) [Example 22] (X9-[Thr(3ξ)][Dab][Dab][Dab][dF]L[Dab][Dab][Thr(3ξ)]; lactam 3-C) was 8

Tested system Escherichia coli; MIC E. coli ATCC25922 recorded for CC(C)C[C@@H]1NC(=O)[C@@H](Cc2ccccc2)NC(=O)[C@H](CCN)NC(=O)[C@@H](NC(=O)[C@H](CCN)NC(=O)[C@@H](NC(=O)C(O)C2CCCCC2)C(C)O)CCNC(=O)[C@H](C(C)O)NC(=O)[C@H](CCN)NC(=O)[C@H](CCN)NC1=O (mixture of isomers) was 2

Data credit: patent US10407467B2
